# Tested Target: Dipeptidyl peptidase 8 (Homo sapiens, UniProt Q6V1X1)
# Sequence (Q6V1X1 whole entry): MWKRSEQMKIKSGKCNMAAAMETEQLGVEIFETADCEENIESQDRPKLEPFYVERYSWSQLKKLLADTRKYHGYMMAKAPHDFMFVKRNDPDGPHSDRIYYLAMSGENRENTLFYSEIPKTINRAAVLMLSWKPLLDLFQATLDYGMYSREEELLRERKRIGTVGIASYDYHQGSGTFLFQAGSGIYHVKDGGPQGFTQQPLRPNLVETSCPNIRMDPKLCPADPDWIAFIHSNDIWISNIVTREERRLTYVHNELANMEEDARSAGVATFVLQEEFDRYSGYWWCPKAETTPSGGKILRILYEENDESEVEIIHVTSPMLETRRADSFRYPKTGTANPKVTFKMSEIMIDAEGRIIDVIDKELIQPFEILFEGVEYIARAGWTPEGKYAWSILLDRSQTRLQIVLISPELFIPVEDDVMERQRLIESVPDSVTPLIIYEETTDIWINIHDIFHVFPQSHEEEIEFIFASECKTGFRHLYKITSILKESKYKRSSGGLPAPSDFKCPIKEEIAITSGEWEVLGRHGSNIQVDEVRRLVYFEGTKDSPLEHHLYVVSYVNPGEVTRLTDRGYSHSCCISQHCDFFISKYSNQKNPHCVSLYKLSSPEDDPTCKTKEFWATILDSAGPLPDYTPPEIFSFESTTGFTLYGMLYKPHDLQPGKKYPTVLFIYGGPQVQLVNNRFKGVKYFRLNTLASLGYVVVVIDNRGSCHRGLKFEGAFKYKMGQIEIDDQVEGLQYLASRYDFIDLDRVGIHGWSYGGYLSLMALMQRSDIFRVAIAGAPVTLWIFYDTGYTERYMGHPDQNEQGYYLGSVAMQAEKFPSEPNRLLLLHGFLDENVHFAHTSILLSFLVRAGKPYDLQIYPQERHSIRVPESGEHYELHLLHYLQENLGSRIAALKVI
pIC50: −log10 of the molar value.
Observation Type: pIC50

In the examples that follow, each entry is paired with its recorded pIC50.
INSERT INTO measurements (compound, tested_target, val) VALUES
  ('CN(C)C(=O)[C@@H](C1CCC(NS(=O)(=O)c2ccc(OC(F)(F)F)cc2)CC1)[C@H](N)C(=O)N1CC[C@H](F)C1 (some centres not stated)', 'Dipeptidyl peptidase 8 (Homo sapiens, UniProt Q6V1X1)', '< 4.00'),
  ('Cc1ccc(C(=O)N(C)c2ccc([C@H](C(=O)N(C)C)[C@H](N)C(=O)N3CC[C@H](F)C3)cc2)cc1', 'Dipeptidyl peptidase 8 (Homo sapiens, UniProt Q6V1X1)', '< 4.00'),
  ('CC(=O)N(C)c1ccc([C@H](C(=O)N(C)C)[C@H](N)C(=O)N2CC[C@H](F)C2)cc1', 'Dipeptidyl peptidase 8 (Homo sapiens, UniProt Q6V1X1)', '< 4.00'),
  ('CN(C)C(=O)[C@@H](C1CCC(N(C)C(=O)c2cccc(F)c2)CC1)[C@H](N)C(=O)N1CC[C@H](F)C1.Cl (some centres not stated)', 'Dipeptidyl peptidase 8 (Homo sapiens, UniProt Q6V1X1)', '< 4.00'),
  ('CN(C)C(=O)[C@@H](c1ccc(NS(=O)(=O)c2ccccc2)cc1)[C@H](N)C(=O)N1CC[C@H](F)C1', 'Dipeptidyl peptidase 8 (Homo sapiens, UniProt Q6V1X1)', '< 4.00'),
  ('CN(C)C(=O)[C@@H](C1CCC(NS(=O)(=O)c2ccc(F)cc2F)CC1)[C@H](N)C(=O)N1CC[C@H](F)C1 (some centres not stated)', 'Dipeptidyl peptidase 8 (Homo sapiens, UniProt Q6V1X1)', '< 4.00');

Could you now look at the following compound, please?
Lab request: please report pIC50 under test system Dipeptidyl peptidase 8 (Homo sapiens, UniProt Q6V1X1) for C[C@@H](c1ccc(N(C)C(=O)c2ccc(F)cc2)cc1)[C@H](N)C(=O)N1CC[C@H](F)C1
< 4.00

====

# Procedure Details: Oral bioavailability in dog at 2 mg/kg, po
# Format: ADME, organism-based, Canis lupus familiaris
# Condition Label: in vivo
Observation Type: bioavailability (%)
Respond numerically; units are % and should not be typed.

Data request, read-out bioavailability, for CC(=O)N(C)C1CCC([C@H](C)[C@H](N)C(=O)N2CC[C@H](F)C2)CC1.Cl (stereo partly specified)
83

====

# Procedure Details: Plasma clearance in rat at 1 mg/kg, iv or 2 mg/kg, po
# Assay type: ADME, organism-based
Quick list: clearance per entry.
Respond numerically; units are mL/min/kg and should not be typed.

INSERT INTO measurements (molecule, unit_info, val) VALUES
  ('C[C@@H](C1CCC(N(C)C(=O)c2cccc(F)c2)CC1)[C@H](N)C(=O)N1CC[C@H](F)C1.Cl (some centres not stated)', 'mL/min/kg', 40),
  ('CN(C)C(=O)[C@@H](c1ccc(N(C)C(=O)c2ccc(F)cc2)cc1)[C@H](N)C(=O)N1CC[C@H](F)C1.O=C(O)C(F)(F)F', 'mL/min/kg', 73),
  ('CN(C)C(=O)[C@@H](C1CCC(N(C)C(=O)c2cccc(F)c2)CC1)[C@H](N)C(=O)N1CC[C@H](F)C1.Cl (some centres not stated)', 'mL/min/kg', 27),
  ('CC(=O)N(C)C1CCC([C@H](C(=O)N(C)C)[C@H](N)C(=O)N2CC[C@H](F)C2)CC1.Cl (some centres not stated)', 'mL/min/kg', 18),
  ('CC(=O)N(C)C1CCC([C@H](C)[C@H](N)C(=O)N2CC[C@H](F)C2)CC1.Cl (some centres not stated)', 'mL/min/kg', 42),
  ('Cl.N[C@H](C(=O)N1CC[C@H](F)C1)C1CCC(NS(=O)(=O)c2ccc(F)cc2F)CC1 (some centres not stated)', 'mL/min/kg', 24);

Could you now look at the following molecule, please?
Data request, read-out clearance, for C[C@@H](C1CCC(N(C)C(=O)C2CC2)CC1)[C@H](N)C(=O)N1CC[C@H](F)C1.Cl (some centres not stated)
49

====

Quick list: pIC50 per entry.
# Tested Target: Voltage-gated inwardly rectifying potassium channel KCNH2 (Homo sapiens)
# Sequence (Q12809 whole entry): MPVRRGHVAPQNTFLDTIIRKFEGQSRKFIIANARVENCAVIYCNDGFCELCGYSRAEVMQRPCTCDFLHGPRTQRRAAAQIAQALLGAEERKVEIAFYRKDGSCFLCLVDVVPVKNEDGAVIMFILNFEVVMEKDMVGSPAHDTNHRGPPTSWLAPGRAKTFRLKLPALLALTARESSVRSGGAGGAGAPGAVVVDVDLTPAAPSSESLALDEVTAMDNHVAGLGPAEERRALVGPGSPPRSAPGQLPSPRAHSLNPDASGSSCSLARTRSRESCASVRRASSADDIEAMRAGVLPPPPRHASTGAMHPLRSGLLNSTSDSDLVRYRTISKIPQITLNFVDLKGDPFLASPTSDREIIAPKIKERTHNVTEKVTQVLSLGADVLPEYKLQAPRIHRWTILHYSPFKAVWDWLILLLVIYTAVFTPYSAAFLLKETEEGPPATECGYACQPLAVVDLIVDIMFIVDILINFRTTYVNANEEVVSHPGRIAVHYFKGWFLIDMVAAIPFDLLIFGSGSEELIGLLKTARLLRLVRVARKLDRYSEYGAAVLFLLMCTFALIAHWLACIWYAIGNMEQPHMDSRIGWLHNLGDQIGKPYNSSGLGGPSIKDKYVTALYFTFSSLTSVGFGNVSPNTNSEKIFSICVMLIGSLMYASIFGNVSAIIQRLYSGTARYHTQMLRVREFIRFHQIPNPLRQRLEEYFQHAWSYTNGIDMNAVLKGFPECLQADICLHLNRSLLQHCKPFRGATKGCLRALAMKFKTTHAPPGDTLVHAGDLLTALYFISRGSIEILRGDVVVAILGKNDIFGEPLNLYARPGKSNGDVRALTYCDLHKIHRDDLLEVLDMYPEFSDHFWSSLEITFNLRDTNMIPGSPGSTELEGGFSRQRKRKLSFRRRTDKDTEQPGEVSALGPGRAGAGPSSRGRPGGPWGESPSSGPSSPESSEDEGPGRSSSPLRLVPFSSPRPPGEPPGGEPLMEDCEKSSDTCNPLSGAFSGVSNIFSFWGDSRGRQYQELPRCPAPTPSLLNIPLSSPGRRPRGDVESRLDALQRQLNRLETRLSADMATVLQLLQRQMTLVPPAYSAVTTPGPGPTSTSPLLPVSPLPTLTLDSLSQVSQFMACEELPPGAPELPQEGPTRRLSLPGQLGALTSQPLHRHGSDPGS
pIC50: −log10 of the molar value.

INSERT INTO measurements (compound, val) VALUES
  ('CN(C)C(=O)[C@@H](c1ccc(N(C)C(=O)c2ccc(F)cc2)cc1)[C@H](N)C(=O)N1CC[C@H](F)C1.O=C(O)C(F)(F)F', '< 4.05');

Data request, read-out pIC50, for CN(C)C(=O)[C@@H](C1CCC(N(C)C(=O)c2cccc(F)c2)CC1)[C@H](N)C(=O)N1CC[C@H](F)C1.Cl (stereo partly drawn)
< 4.05

Data request, read-out pIC50, for CC(=O)N(C)C1CCC([C@H](C)[C@H](N)C(=O)N2CC[C@H](F)C2)CC1.Cl (stereo partly drawn)
< 4.05

====

# Procedure Details: Oral bioavailability in rat at 2 mg/kg, po
# Type: ADME, organism-based
# Condition Label: in vivo
Observation Type: bioavailability
Quote the value and follow it with the unit of measurement.

INSERT INTO measurements (compound, val) VALUES
  ('CC(=O)N(C)C1CCC([C@H](C(=O)N(C)C)[C@H](N)C(=O)N2CC[C@H](F)C2)CC1.Cl (stereo partly specified)', '3%'),
  ('C[C@@H](C1CCC(N(C)C(=O)c2cccc(F)c2)CC1)[C@H](N)C(=O)N1CC[C@H](F)C1.Cl (stereo partly specified)', '72%'),
  ('C[C@@H](C1CCC(N(C)C(=O)C2CC2)CC1)[C@H](N)C(=O)N1CC[C@H](F)C1.Cl (stereo partly specified)', '46%'),
  ('CN(C)C(=O)[C@@H](c1ccc(N(C)C(=O)c2ccc(F)cc2)cc1)[C@H](N)C(=O)N1CC[C@H](F)C1.O=C(O)C(F)(F)F', '6%'),
  ('CC(=O)N(C)C1CCC([C@H](C)[C@H](N)C(=O)N2CC[C@H](F)C2)CC1.Cl (stereo partly specified)', '56%');

Data request, read-out bioavailability, for CN(C)C(=O)[C@@H](C1CCC(N(C)C(=O)c2cccc(F)c2)CC1)[C@H](N)C(=O)N1CC[C@H](F)C1.Cl (stereo partly specified)
25%

====

# Procedure Details: Plasma clearance in dog at 1 mg/kg, iv or 2 mg/kg, po
# Assay type: ADME, organism-based, Canis lupus familiaris
Observation Type: clearance
Quote the value and follow it with the unit of measurement.

Data request, read-out clearance, for CC(=O)N(C)C1CCC([C@H](C)[C@H](N)C(=O)N2CC[C@H](F)C2)CC1.Cl (stereo partly specified)
0.264 L/h/kg
